target: VR1 (rat) (Rattus norvegicus); experiment: Functional FLIPR Ca2+ inflow assay on rat-species vanilloid receptor 1 in rat dorsal root ganglia cells; conditions: against capsaicin (CAP)
Sequence (O35433 whole entry): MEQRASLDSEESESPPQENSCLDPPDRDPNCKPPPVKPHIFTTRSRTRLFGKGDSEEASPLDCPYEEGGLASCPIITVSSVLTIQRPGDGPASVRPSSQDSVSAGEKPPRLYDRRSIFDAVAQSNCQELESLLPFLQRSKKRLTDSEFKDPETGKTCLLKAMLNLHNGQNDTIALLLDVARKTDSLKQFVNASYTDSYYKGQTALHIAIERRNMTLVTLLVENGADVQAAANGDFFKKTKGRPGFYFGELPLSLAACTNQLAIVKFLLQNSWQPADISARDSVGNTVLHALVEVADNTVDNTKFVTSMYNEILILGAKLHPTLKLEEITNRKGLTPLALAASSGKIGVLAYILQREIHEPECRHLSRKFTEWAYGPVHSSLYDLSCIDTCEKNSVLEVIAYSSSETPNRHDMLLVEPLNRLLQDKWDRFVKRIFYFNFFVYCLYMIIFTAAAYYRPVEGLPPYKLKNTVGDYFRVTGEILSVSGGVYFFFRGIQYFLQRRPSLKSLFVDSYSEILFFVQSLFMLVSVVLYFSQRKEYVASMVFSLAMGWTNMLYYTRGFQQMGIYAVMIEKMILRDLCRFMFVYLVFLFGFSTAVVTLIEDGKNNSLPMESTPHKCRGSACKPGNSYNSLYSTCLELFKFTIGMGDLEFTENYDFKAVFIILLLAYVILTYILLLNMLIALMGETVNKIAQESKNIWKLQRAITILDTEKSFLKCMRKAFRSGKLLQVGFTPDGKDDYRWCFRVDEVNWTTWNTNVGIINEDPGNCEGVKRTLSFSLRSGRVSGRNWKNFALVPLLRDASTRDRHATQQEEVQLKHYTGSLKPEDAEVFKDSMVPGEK
Measurement label: IC50 (nM)
Just the number in nM, nothing appended.

Return reported IC50; argument: CC(C)(C)c1ccc(NC(=O)C2CCC3(CC2)CC(c2ccccc2)=NO3)cc1 (stereo not shown) 545

Reported IC50 for CC(C)(C)[C@H]1CC[C@@]2(CC1)CC(C(=O)NCc1ccc(NS(C)(=O)=O)c(F)c1)=NO2 : what is it? 126

Give the measured IC50 of CCC(C)(C)C1CCC2(CC1)CC(C(=O)NCc1ccc(NS(C)(=O)=O)c(F)c1)=NO2 (stereo not shown) . 1220

Which IC50 reading was recorded for the compound CC(C)(C)[C@H]1CC[C@@]2(CC1)CC(C(=O)N1CCN(c3ncccc3C(F)(F)F)CC1)=NO2 ? 1550
